Test Details: molar heat capacity at constant pressure
Experimental Context: 363.15 K; 100 kPa; Crystal; DSC
Test Readout: molar heat capacity at constant pressure (J/K/mol)
Numbers only, in J/K/mol.

Answered examples (5):
O=C(O)c1ccccc1 [benzoic acid] | 174.4
c1ccc2cc3ccccc3cc2c1 [anthracene] | 262.9
Nc1ccc2oc(-c3ccccc3)cc(=O)c2c1 [6-aminoflavone] | 338.1
c1cc2ccc3cccc4ccc(c1)c2c34 [pyrene] | 291.4
O=c1cc(-c2ccccc2)oc2cccc(O)c12 [5-hydroxyflavone] | 338.5

Could you tell me molar heat capacity at constant pressure for each of these compounds? They are listed below.
1. O=c1cc(-c2ccccc2)oc2cc(O)ccc12 [7-hydroxyflavone]
2. O=c1cc(-c2ccccc2)oc2ccc(O)cc12 [6-hydroxyflavone]

Key:
312.3
317.2

Exercise: // molar heat capacity at constant pressure lookup, key: O=c1c(O)c(-c2ccccc2)oc2ccccc12 [3-hydroxyflavone]
Key: 315

====

Test Details: molar heat capacity at constant pressure
Experimental Context: 343.15 K; 100 kPa; Crystal; DSC
Test Readout: molar heat capacity at constant pressure (J/K/mol)
Numbers only, in J/K/mol.

Answered examples (2):
O=C(O)c1ccccc1 [benzoic acid] | 164.4
c1ccc2cc3ccccc3cc2c1 [anthracene] | 246.5

Next compound, molar heat capacity at constant pressure to be filled in.
Exercise: // molar heat capacity at constant pressure lookup, key: c1cc2ccc3cccc4ccc(c1)c2c34 [pyrene]
Key: 268.9

====

Test Details: molar heat capacity at constant pressure
Experimental Context: 413.15 K; 100 kPa; Crystal; DSC
Test Readout: molar heat capacity at constant pressure (J/K/mol)
Answers are plain numbers, in J/K/mol.

c1cc2ccc3cccc4ccc(c1)c2c34 [pyrene] | 372.2
O=c1cc(-c2ccccc2)oc2cccc(O)c12 [5-hydroxyflavone] | 382.3
O=c1c(O)c(-c2ccccc2)oc2ccccc12 [3-hydroxyflavone] | 361.2
O=c1cc(-c2ccccc2)oc2ccc(O)cc12 [6-hydroxyflavone] | 362.3
c1ccc2cc3ccccc3cc2c1 [anthracene] | 303.3
Nc1ccc2oc(-c3ccccc3)cc(=O)c2c1 [6-aminoflavone] | 378.3

Exercise: // molar heat capacity at constant pressure lookup, key: O=c1cc(-c2ccccc2)oc2cc(O)ccc12 [7-hydroxyflavone]
Key: 351.4

====

Record form. Attribute: molar heat capacity at constant pressure. Fill in for each entry.
Test Details: molar heat capacity at constant pressure
Experimental Context: 373.15 K; 100 kPa; Crystal; DSC
One number for each entry, in J/K/mol.

Answered examples (5):
Nc1ccc2oc(-c3ccccc3)cc(=O)c2c1 [6-aminoflavone] | 346.1
O=c1cc(-c2ccccc2)oc2ccc(O)cc12 [6-hydroxyflavone] | 326.7
O=C(O)c1ccccc1 [benzoic acid] | 179.2
O=c1c(O)c(-c2ccccc2)oc2ccccc12 [3-hydroxyflavone] | 323.7
c1ccc2cc3ccccc3cc2c1 [anthracene] | 270.6

Could you tell me molar heat capacity at constant pressure for each of these compounds? They are listed below.
1. c1cc2ccc3cccc4ccc(c1)c2c34 [pyrene]
2. O=c1cc(-c2ccccc2)oc2cccc(O)c12 [5-hydroxyflavone]
3. O=c1cc(-c2ccccc2)oc2cc(O)ccc12 [7-hydroxyflavone]

Key:
[304.6, 347.9, 320.7]

====

Test Details: molar heat capacity at constant pressure
Experimental Context: 323.15 K; 100 kPa; Crystal; DSC
Record form. Attribute: molar heat capacity at constant pressure. Fill in for each entry.
Numbers only, in J/K/mol.

Answered examples (5):
O=c1cc(-c2ccccc2)oc2cc(O)ccc12 [7-hydroxyflavone] | 276.8
c1ccc2cc3ccccc3cc2c1 [anthracene] | 229.6
O=c1c(O)c(-c2ccccc2)oc2ccccc12 [3-hydroxyflavone] | 284.2
O=c1cc(-c2ccccc2)oc2cccc(O)c12 [5-hydroxyflavone] | 307
Nc1ccc2oc(-c3ccccc3)cc(=O)c2c1 [6-aminoflavone] | 301.6

Could you tell me molar heat capacity at constant pressure for each of these compounds? They are listed below.
1. O=C(O)c1ccccc1 [benzoic acid]
2. c1cc2ccc3cccc4ccc(c1)c2c34 [pyrene]

Key:
[155.4, 247.5]

Exercise: // molar heat capacity at constant pressure lookup, key: O=c1cc(-c2ccccc2)oc2ccc(O)cc12 [6-hydroxyflavone]
Key: 277

====

Test Details: molar heat capacity at constant pressure
Experimental Context: 383.15 K; 100 kPa; Crystal; DSC
Decide using molar heat capacity at constant pressure: a value greater than or equal to 300 J/K/mol is label 1, a smaller one is label 0.

Exercise: Threshold query (molar heat capacity at constant pressure >= 300 J/K/mol) on O=c1cc(-c2ccccc2)oc2cccc(O)c12 [5-hydroxyflavone]
Key: label 1

Exercise: Next record, please: O=C(O)c1ccccc1
Key: label 0

Exercise: Next record, please: O=c1c(O)c(-c2ccccc2)oc2ccccc12 [3-hydroxyflavone]
Key: label 1

Exercise: Next record, please: c1ccc2cc3ccccc3cc2c1
Key: label 0

Exercise: Next record, please: O=c1cc(-c2ccccc2)oc2cc(O)ccc12 [7-hydroxyflavone]
Key: label 1

Exercise: Next record, please: O=c1cc(-c2ccccc2)oc2ccc(O)cc12 [6-hydroxyflavone]
Key: label 1

Exercise: Next record, please: c1cc2ccc3cccc4ccc(c1)c2c34
Key: label 1

Exercise: Next record, please: Nc1ccc2oc(-c3ccccc3)cc(=O)c2c1
Key: label 1

====

Record form. Attribute: molar heat capacity at constant pressure. Fill in for each entry.
Test Details: molar heat capacity at constant pressure
Experimental Context: 318.15 K; 100 kPa; Crystal; DSC
Give bare numbers, in J/K/mol.

Could you tell me molar heat capacity at constant pressure for each of these molecules? They are listed below.
1. O=c1c(O)c(-c2ccccc2)oc2ccccc12 [3-hydroxyflavone]
2. O=c1cc(-c2ccccc2)oc2cccc(O)c12 [5-hydroxyflavone]
3. c1ccc2cc3ccccc3cc2c1 [anthracene]
4. O=c1cc(-c2ccccc2)oc2cc(O)ccc12 [7-hydroxyflavone]
5. Nc1ccc2oc(-c3ccccc3)cc(=O)c2c1 [6-aminoflavone]
6. O=c1cc(-c2ccccc2)oc2ccc(O)cc12 [6-hydroxyflavone]

Key:
1. 280.8
2. 302.8
3. 225.4
4. 272
5. 296.7
6. 271.1

Could you tell me molar heat capacity at constant pressure for each of these molecules? They are listed below.
1. c1cc2ccc3cccc4ccc(c1)c2c34 [pyrene]
2. O=C(O)c1ccccc1 [benzoic acid]

Key:
1: 243; 2: 153

====

Test Details: molar heat capacity at constant pressure
Experimental Context: 433.15 K; 100 kPa; Crystal; DSC
Test Readout: molar heat capacity at constant pressure (J/K/mol)
Answers are plain numbers, in J/K/mol.

O=c1c(O)c(-c2ccccc2)oc2ccccc12 [3-hydroxyflavone] | 386
c1ccc2cc3ccccc3cc2c1 | 317.4
Nc1ccc2oc(-c3ccccc3)cc(=O)c2c1 | 395.3
O=c1cc(-c2ccccc2)oc2cc(O)ccc12 [7-hydroxyflavone] | 366.3

Exercise: // molar heat capacity at constant pressure lookup, key: O=c1cc(-c2ccccc2)oc2ccc(O)cc12 [6-hydroxyflavone]
Key: 376.9

====

Record form. Attribute: molar heat capacity at constant pressure. Fill in for each entry.
Test Details: molar heat capacity at constant pressure
Experimental Context: 333.15 K; 100 kPa; Crystal; DSC
Give bare numbers, in J/K/mol.

Answered examples (5):
O=c1cc(-c2ccccc2)oc2cc(O)ccc12 [7-hydroxyflavone] | 286
c1cc2ccc3cccc4ccc(c1)c2c34 | 258.1
O=c1c(O)c(-c2ccccc2)oc2ccccc12 [3-hydroxyflavone] | 291.5
O=c1cc(-c2ccccc2)oc2cccc(O)c12 [5-hydroxyflavone] | 312.9
Nc1ccc2oc(-c3ccccc3)cc(=O)c2c1 | 311.1

Could you tell me molar heat capacity at constant pressure for each of these compounds? They are listed below.
1. O=C(O)c1ccccc1
2. O=c1cc(-c2ccccc2)oc2ccc(O)cc12 [6-hydroxyflavone]
3. c1ccc2cc3ccccc3cc2c1

Key:
160
287.5
237.9

====

Test Details: molar heat capacity at constant pressure
Experimental Context: 393.15 K; 100 kPa; Crystal; DSC
Record form. Attribute: molar heat capacity at constant pressure. Fill in for each entry.
Give bare numbers, in J/K/mol.

c1cc2ccc3cccc4ccc(c1)c2c34 | 333.7
c1ccc2cc3ccccc3cc2c1 | 286.9

Could you tell me molar heat capacity at constant pressure for each of these compounds? They are listed below.
1. Nc1ccc2oc(-c3ccccc3)cc(=O)c2c1
2. O=c1cc(-c2ccccc2)oc2cccc(O)c12 [5-hydroxyflavone]
3. O=c1cc(-c2ccccc2)oc2cc(O)ccc12 [7-hydroxyflavone]
4. O=c1c(O)c(-c2ccccc2)oc2ccccc12 [3-hydroxyflavone]
5. O=c1cc(-c2ccccc2)oc2ccc(O)cc12 [6-hydroxyflavone]

Key:
[361.8, 365.3, 336, 341.6, 344.4]

====

Record form. Attribute: molar heat capacity at constant pressure. Fill in for each entry.
Test Details: molar heat capacity at constant pressure
Experimental Context: 378.15 K; 100 kPa; Crystal; DSC
One number for each entry, in J/K/mol.

c1cc2ccc3cccc4ccc(c1)c2c34 | 310.7
O=c1cc(-c2ccccc2)oc2ccc(O)cc12 [6-hydroxyflavone] | 330.6
O=c1cc(-c2ccccc2)oc2cc(O)ccc12 [7-hydroxyflavone] | 324.4
O=C(O)c1ccccc1 | 182
O=c1c(O)c(-c2ccccc2)oc2ccccc12 [3-hydroxyflavone] | 328
Nc1ccc2oc(-c3ccccc3)cc(=O)c2c1 | 349.8
c1ccc2cc3ccccc3cc2c1 | 275.2

Next compound, molar heat capacity at constant pressure to be filled in.
Exercise: // molar heat capacity at constant pressure lookup, key: O=c1cc(-c2ccccc2)oc2cccc(O)c12 [5-hydroxyflavone]
Key: 350.8
